For each record, write down the corresponding bioavailability.
assay: Pharmacokinetics study of the compounds in C57BL/6 mice; type: in vivo; conditions: male, mouse, single intravenous and oral dose, plasma, read-out: Bioavailability F
Kindly answer with a numeric value in %, unit omitted.

Inquiry: Provide measured bioavailability value, entry: "Cc1c(Nc2ccc(I)cc2F)c2c(=O)n(C3CC3)c(C)c(-c3cccc(CS(C)(=O)=O)c3)c2oc1=O"
Reply text: 83

Inquiry: Provide measured bioavailability value, entry: Cc1c(NS(C)(=O)=O)cccc1-c1c(C)n(C2CC2)c(=O)c2c(Nc3ccc(I)cc3F)c(C)c(=O)oc12 (single isomer, unassigned) [WX113]
Reply text: 73.1

Inquiry: Provide measured bioavailability value, entry: "CC(=O)Nc1cccc(-c2c(C)n(C3CC3)c(=O)c3c(Nc4ccc(I)cc4F)c(C)c(=O)oc23)c1"
Reply text: 68.7

Inquiry: Provide measured bioavailability value, entry: "Cc1c(Nc2ccc(I)cc2F)c2c(=O)n(C3CC3)c(C)c(-c3cccc(NS(C)(=O)=O)c3)c2oc1=O"
Reply text: 99.2

Inquiry: Provide measured bioavailability value, entry: Cc1c(NS(C)(=O)=O)cccc1-c1c(C)n(C2CC2)c(=O)c2c(Nc3ccc(I)cc3F)c(C)c(=O)oc12 [WX086]
Reply text: 76.8

* * *

assay: Pharmacokinetics study of the compounds in C57BL/6 mice; format: in vivo; details: male, mouse, single intravenous and oral dose, plasma, read-out: Comcentration quadrature AUC
Lab note: compare AUC against 30 µM·h. Equal or greater, write rule met. Smaller, write rule not met.

Inquiry: For this compound, is measured AUC 30 µM·h or higher? Cc1c(NS(C)(=O)=O)cccc1-c1c(C)n(C2CC2)c(=O)c2c(Nc3ccc(I)cc3F)c(C)c(=O)oc12 (single isomer, unassigned) [WX113]
Reply text: rule not met

Inquiry: For this compound, is measured AUC 30 µM·h or higher? Cc1c(NS(C)(=O)=O)cccc1-c1c(C)n(C2CC2)c(=O)c2c(Nc3ccc(I)cc3F)c(C)c(=O)oc12 [WX086]
Reply text: rule not met

Inquiry: For this compound, is measured AUC 30 µM·h or higher? "Cc1c(Nc2ccc(I)cc2F)c2c(=O)n(C3CC3)c(C)c(-c3cccc(NS(C)(=O)=O)c3)c2oc1=O"
Reply text: rule not met

Inquiry: For this compound, is measured AUC 30 µM·h or higher? "Cc1c(Nc2ccc(I)cc2F)c2c(=O)n(C3CC3)c(C)c(-c3cccc(CS(C)(=O)=O)c3)c2oc1=O"
Reply text: rule met

* * *

For each record, write down the corresponding log10 IC50.
system: A375 cells; assay: Cell viability experiment (Cell Titer-Glo), A375; type: cell-based; conditions: Homo sapiens, A-375, 72 h, A375 cells, 3 days incubation; read-out: A375 IC50
log10 IC50, nM

Inquiry: Provide measured log10 IC50 value, entry: CC(=O)Nc1cccc(-c2c(C)n(C)c(=O)c3c(Nc4ccc(I)cc4F)c(C)c(=O)oc23)c1 [WX040]
Reply text: 1.84

Inquiry: Provide measured log10 IC50 value, entry: Cc1c(Nc2ccc(I)cc2F)c2c(=O)n(C3CC3)c(C)c(-c3cccc(NC(=O)NC(C)(C)C)c3)c2oc1=O [WX104]
Reply text: 1.02

Inquiry: Provide measured log10 IC50 value, entry: Cc1c(Nc2ccc(I)cc2F)c2c(=O)n(C3CC3)c(C)cc2oc1=O [WX035]
Reply text: 1.52

Inquiry: Provide measured log10 IC50 value, entry: CC(=O)Nc1cccc(-c2c(C)n(CCN(C)S(C)(=O)=O)c(=O)c3c(Nc4ccc(I)cc4F)c(C)c(=O)oc23)c1 [WX055]
Reply text: 2.81

Inquiry: Provide measured log10 IC50 value, entry: Cc1c(Nc2ccc(I)cc2F)c2c(=O)n(C3CC3)c(C)c(-c3cccc(NS(=O)(=O)C(C)(C)C)c3)c2oc1=O [WX095]
Reply text: -0.10

Inquiry: Provide measured log10 IC50 value, entry: Cc1c(Nc2ccc(I)cc2F)c2c(=O)n(C3CC3)c(C)c(-c3ccnc(N)c3)c2oc1=O [WX079]
Reply text: 0.51

Inquiry: Provide measured log10 IC50 value, entry: CCc1c(Nc2ccc(I)cc2F)c2c(=O)n(C3CC3)c(C)c(-c3cccc(CS(C)(=O)=O)c3C)c2oc1=O [WX110]
Reply text: 1.98

Inquiry: Provide measured log10 IC50 value, entry: Cc1c(Nc2ccc(I)cc2F)c2c(=O)n(C3CC3)c(C)c(-c3cccc(C[S+](C)[O-])c3)c2oc1=O (single isomer, unassigned) [WX083]
Reply text: 0.94

Inquiry: Provide measured log10 IC50 value, entry: Cc1c(Nc2ccc(I)cc2F)c2c(=O)n(C3CC3)c(C)c(-c3cccc(C(N)=O)c3)c2oc1=O [WX112]
Reply text: 0.78

Inquiry: Provide measured log10 IC50 value, entry: COCCNc1cccc(-c2c(C)n(C3CC3)c(=O)c3c(Nc4ccc(I)cc4F)c(C)c(=O)oc23)c1 [WX087]
Reply text: 0.97

Inquiry: Provide measured log10 IC50 value, entry: Cc1c(Nc2ccc(I)cc2F)c2c(=O)n(C3CC3)c(C)c(-c3cccc(CS(C)(=O)=O)c3)c2oc1=O [WX071]
Reply text: 0.48

Inquiry: Provide measured log10 IC50 value, entry: Cc1c(Nc2ccc(I)cc2F)c2c(=O)n(C3CC3)c(C)c(-c3cccc(NC(=O)C4COC4)c3)c2oc1=O [WX065]
Reply text: 0.63

Inquiry: Provide measured log10 IC50 value, entry: CC(=O)Nc1cccc(-c2c(C)n(CCN(C)C(C)=O)c(=O)c3c(Nc4ccc(I)cc4F)c(C)c(=O)oc23)c1 [WX056]
Reply text: 3.19

Inquiry: Provide measured log10 IC50 value, entry: Cc1c(Nc2ccc(I)cc2F)c2c(=O)n(C3CC3)c(C)c(-c3cccc(CN(C)C)c3)c2oc1=O [WX098]
Reply text: 1.08

Inquiry: Provide measured log10 IC50 value, entry: CC(=O)Nc1ccc(F)c(-c2c(C)n(C3CC3)c(=O)c3c(Nc4ccc(I)cc4F)c(C)c(=O)oc23)c1 [WX048]
Reply text: 1.72

* * *

For each record, write down the corresponding pIC50.
tested on: A375 cells; test: Cell viability experiment (Cell Titer-Glo), A375; type: cell-based; conditions: Homo sapiens, A-375, 72 h, A375 cells, 3 days incubation; read-out: A375 IC50
As a rule, pIC50 stands for the negative log10 of the concentration, concentration in M.

Inquiry: Provide measured pIC50 value, entry: "CC(=O)Nc1cccc(Cc2c(C)n(C3CC3)c(=O)c3c(Nc4ccc(I)cc4F)c(C)c(=O)oc23)c1"
Reply text: 9.43

Inquiry: Provide measured pIC50 value, entry: Cc1c(Nc2ccc(I)cc2F)c2c(=O)n(CC(O)CO)c(C)cc2oc1=O (stereo not shown)
Reply text: 8.49

Inquiry: Provide measured pIC50 value, entry: "Cc1c(Nc2ccc(I)cc2F)c2c(=O)n(C3CC3)c(C)c(-c3cccc(CNS(C)(=O)=O)c3)c2oc1=O"
Reply text: 8.67

Inquiry: Provide measured pIC50 value, entry: "CCS(=O)(=O)Nc1cccc(-c2c(C)n(C3CC3)c(=O)c3c(Nc4ccc(I)cc4F)c(C)c(=O)oc23)c1"
Reply text: 8.76

* * *

For each record, write down the corresponding IC50.
biological target: activated MEK1 (Homo sapiens); experiment: MEK Lance Ultra experiment; details: 0.07 nM activated MEK1, 2 nM non-activated ERK, 50 μM ATP; read-out: MEK potency IC50
Sequence (Q02750 whole entry): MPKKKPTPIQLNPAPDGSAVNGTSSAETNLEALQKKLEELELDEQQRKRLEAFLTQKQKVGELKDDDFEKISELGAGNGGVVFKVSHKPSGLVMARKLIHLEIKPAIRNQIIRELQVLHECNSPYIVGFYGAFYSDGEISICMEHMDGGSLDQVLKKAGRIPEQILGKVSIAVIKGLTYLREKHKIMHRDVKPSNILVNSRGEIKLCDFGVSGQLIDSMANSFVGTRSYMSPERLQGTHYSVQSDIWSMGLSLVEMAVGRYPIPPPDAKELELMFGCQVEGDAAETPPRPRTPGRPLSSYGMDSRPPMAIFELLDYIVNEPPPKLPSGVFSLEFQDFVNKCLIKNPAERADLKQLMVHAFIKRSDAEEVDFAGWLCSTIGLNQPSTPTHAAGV
Kindly answer with a numeric value in nM, unit omitted.

Inquiry: Report value: IC50, system: activated MEK1 (Homo sapiens), molecule: "Cc1c(Nc2ccc(I)cc2F)c2c(=O)n(C3CC3)c(C)c(-c3cccc(CN(C)C)c3)c2oc1=O"
Reply text: 28.5

Inquiry: Report value: IC50, system: activated MEK1 (Homo sapiens), molecule: "Cc1ccccc1-c1c(C)n(C2CC2)c(=O)c2c(Nc3ccc(I)cc3F)c(C)c(=O)oc12"
Reply text: 14.4

Inquiry: Report value: IC50, system: activated MEK1 (Homo sapiens), molecule: "COCCNc1cccc(-c2c(C)n(C3CC3)c(=O)c3c(Nc4ccc(I)cc4F)c(C)c(=O)oc23)c1"
Reply text: 152

Inquiry: Report value: IC50, system: activated MEK1 (Homo sapiens), molecule: "COC(OC)C(=O)Nc1cccc(-c2c(C)n(C3CC3)c(=O)c3c(Nc4ccc(I)cc4F)c(C)c(=O)oc23)c1"
Reply text: 105

Inquiry: Report value: IC50, system: activated MEK1 (Homo sapiens), molecule: "CC(=O)Nc1cccc(-c2c(C)n(CCN(C)S(C)(=O)=O)c(=O)c3c(Nc4ccc(I)cc4F)c(C)c(=O)oc23)c1"
Reply text: 71.1

Inquiry: Report value: IC50, system: activated MEK1 (Homo sapiens), molecule: Cc1c(Nc2ccc(I)cc2F)c2c(=O)n(C3CC3)c(C)c(-c3cccc(NS(C)(=O)=O)c3Cl)c2oc1=O (single isomer, unassigned) [WX116]
Reply text: 34.5

Inquiry: Report value: IC50, system: activated MEK1 (Homo sapiens), molecule: "CC(=O)Nc1cccc(-c2c(C)n(C3CC3)c(=O)c3c(Nc4ccc(I)cc4F)c(C)c(=O)oc23)n1"
Reply text: 52
